# tgt: catalytic domain of MMP-13 enzyme (Homo sapiens, UniProt P45452)
pIC50: −log10 of the molar value.
measurementType: pIC50

[[record]]
molecule = "O=C(NCC12CCC(C(=O)O)(CC1)CC2)Nc1cc(C(=O)NCc2ccc(F)cc2)nc2ccnn12"
tgt = "catalytic domain of MMP-13 enzyme (Homo sapiens, UniProt P45452)"
measurementtype = "pIC50"
result = "> 6.70"

[[record]]
molecule = "Nc1c(N2CCc3ccc(CNC(=O)c4cc(C(=O)O)n5ncnc5n4)cc3C2)c(=O)c1=O"
tgt = "catalytic domain of MMP-13 enzyme (Homo sapiens, UniProt P45452)"
measurementtype = "pIC50"
result = "4.70 to 6.70"

[[record]]
molecule = "Cc1c(C(=O)O)ccc2c1CCC2N(CC(=O)O)Cc1cc(C(=O)NCc2ccc(F)c(F)c2)nc2ccnn12 (centres unmarked)"
tgt = "catalytic domain of MMP-13 enzyme (Homo sapiens, UniProt P45452)"
measurementtype = "pIC50"
result = "> 6.70"

[[record]]
molecule = "O=C(NCc1ccc(F)cc1)c1cc(NC(=O)C23CCC(C(=O)O)(CC2)CC3)n2nccc2n1"
tgt = "catalytic domain of MMP-13 enzyme (Homo sapiens, UniProt P45452)"
measurementtype = "pIC50"
result = "4.70 to 6.70"

[[record]]
molecule = "O=C1COc2ccc(CNC(=O)c3cc(-c4nnn(Cc5ccc(C(=O)O)cc5)n4)n4nccc4n3)cc2N1"
tgt = "catalytic domain of MMP-13 enzyme (Homo sapiens, UniProt P45452)"
measurementtype = "pIC50"
result = "> 6.70"

[[record]]
molecule = "Cc1c(C(=O)O)ccc2c1CC[C@@H]2NC(=O)c1cc(C(=O)NCc2ccc3c(c2)NC(=O)CO3)nc2ccccc12"
tgt = "catalytic domain of MMP-13 enzyme (Homo sapiens, UniProt P45452)"
measurementtype = "pIC50"
result = "4.70 to 6.70"

[[record]]
molecule = "CC(C)(C)n1nnc(-c2cc(C(=O)NCc3ccc4c(c3)NC(=O)CO4)nc3ccnn23)n1"
tgt = "catalytic domain of MMP-13 enzyme (Homo sapiens, UniProt P45452)"
measurementtype = "pIC50"
result = "> 6.70"

[[record]]
molecule = "O=C1COc2ccc(CNC(=O)c3cc(-c4nn[nH]n4)n4ncc(F)c4n3)cc2N1"
tgt = "catalytic domain of MMP-13 enzyme (Homo sapiens, UniProt P45452)"
measurementtype = "pIC50"
result = "> 6.70"

[[record]]
molecule = "Cc1c(C(=O)O)ccc2c1CCC2NCc1cc(C(=O)NCc2ccc(F)c(F)c2)nc2ccnn12 (centres unmarked)"
tgt = "catalytic domain of MMP-13 enzyme (Homo sapiens, UniProt P45452)"
measurementtype = "pIC50"
result = "> 6.70"

[[record]]
molecule = "O=C1COc2ccc(CNC(=O)c3cc(C(F)(F)F)n4ncnc4n3)cc2N1"
tgt = "catalytic domain of MMP-13 enzyme (Homo sapiens, UniProt P45452)"
measurementtype = "pIC50"
result = "4.70 to 6.70"

[[record]]
molecule = "Cc1cc(CNC(=O)c2cc(C(=O)O)n3nccc3n2)ccc1F"
tgt = "catalytic domain of MMP-13 enzyme (Homo sapiens, UniProt P45452)"
measurementtype = "pIC50"
result = "4.70 to 6.70"


Source listed as patent US20080176870A1.
